Target: U1A (human, UniProt P09012 1-282)
Sequence (P09012 whole entry): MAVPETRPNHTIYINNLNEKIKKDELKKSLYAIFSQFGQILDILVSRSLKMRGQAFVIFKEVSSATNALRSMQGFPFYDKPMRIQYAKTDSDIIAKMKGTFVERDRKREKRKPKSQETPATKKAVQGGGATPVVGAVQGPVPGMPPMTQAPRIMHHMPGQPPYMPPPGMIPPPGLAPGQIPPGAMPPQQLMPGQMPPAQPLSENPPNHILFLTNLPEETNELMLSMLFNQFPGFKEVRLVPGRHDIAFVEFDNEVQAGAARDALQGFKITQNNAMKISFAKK
Test: ITC
pKd: −log10 of the molar value.
assay-metric: pKd

# pKd of GGGCACAUUGCACCUCGUGUCCAGACUUCGGUC (structured_RNA) [SLII ITC construct] = > 8.15
